Assay: in vitro
Conditions: African green monkey, CC50, Vero E6, no virus, 3 days
Where a name gives a salt, the structure may show the parent alone.

Molecule	CC50 at 3 days
OC(c1cc(C(F)(F)F)nc2c(C(F)(F)F)cccc12)C1CCCCN1 (stereo not drawn) [Mefloquine hydrochloride]	> 100 µM
CN(C)[C@@H]1C(O)=C(C(N)=O)C(=O)[C@@]2(O)C(O)=C3C(=O)c4c(O)c(NC(=O)CN5CCCC5)cc(F)c4C[C@H]3C[C@@H]12	> 4 µM
CCN(CC)CCCC(C)Nc1c2ccc(Cl)cc2nc2ccc(OC)cc12 (stereo not drawn) [Quinacrine dihydrochloride]	> 6 µM
Nc1nc(=O)n([C@@H]2CS[C@H](CO)O2)cc1F	> 100 µM
NC12CC3CC(CC(C3)C1)C2	> 100 µM
CC[C@H]1OC(=O)[C@H](C)[C@@H](O[C@H]2C[C@@](C)(OC)[C@@H](O)[C@H](C)O2)[C@H](C)[C@@H](O[C@@H]2O[C@H](C)C[C@H](N(C)C)[C@H]2O)[C@](C)(O)C[C@@H](C)CN(C)[C@H](C)[C@@H](O)[C@]1(C)O	> 100 µM
CN(C)C(=O)c1cc2cnc(Nc3ccc(N4CCNCC4)cn3)nc2n1C1CCCC1	> 20 µM
CN(C)CCCN1c2ccccc2Sc2ccc(Cl)cc21	> 18 µM
CC(C)CN(C[C@@H](OP(=O)(O)O)[C@H](Cc1ccccc1)NC(=O)O[C@H]1CCOC1)S(=O)(=O)c1ccc(N)cc1	> 25 µM

----------
Readings of CC50 at 3 days for the listed molecules
Test: in vitro
Conditions: African green monkey, CC50
Property measured: CC50 at 3 days

Molecule	Recorded result
CCOC(=O)Cn1cccc1-c1nc(-c2ccc(OC)cc2)c(-c2ccc(OC)cc2)s1	6.4 µM
CC(C)C(=O)OCC(=O)[C@@]12O[C@H](C3CCCCC3)O[C@@H]1C[C@H]1[C@@H]3CCC4=CC(=O)C=C[C@]4(C)[C@H]3[C@@H](O)C[C@@]12C [Ciclesonide]	> 20 µM
CC(C)CN(C[C@@H](O)[C@H](Cc1ccccc1)NC(=O)O[C@H]1CCOC1)S(=O)(=O)c1ccc(N)cc1	> 100 µM

----------
Assay: in vitro
Details: African green monkey, CC50, Vero E6, no virus, 3 days
Structures can show the parent of a compound that is named as a salt.
Property measured: CC50 at 3 days

Compound	Recorded result
CC(C)(C)NC(=O)[C@@H]1C[C@@H]2CCCC[C@@H]2CN1C[C@@H](O)[C@H](Cc1ccccc1)NC(=O)[C@H](CC(N)=O)NC(=O)c1ccc2ccccc2n1 [Saquinavir]	> 28 µM
Cc1cccc(C)c1OCC(=O)N[C@@H](Cc1ccccc1)[C@@H](O)C[C@H](Cc1ccccc1)NC(=O)[C@H](C(C)C)N1CCCNC1=O [Lopinavir]	> 87 µM
CCC[C@@]1(CCc2ccccc2)CC(O)=C([C@H](CC)c2cccc(NS(=O)(=O)c3ccc(C(F)(F)F)cn3)c2)C(=O)O1 [Tipranavir]	> 70 µM
CC(=O)c1c(C)c2cnc(Nc3ccc(N4CCNCC4)cn3)nc2n(C2CCCC2)c1=O [Palbociclib]	2.7 µM
C[C@H]1c2cccc(O)c2C(=O)C2=C(O)[C@]3(O)C(=O)C(C(N)=O)=C(O)[C@@H](N(C)C)[C@@H]3[C@@H](O)[C@@H]21 [Doxycycline]	> 100 µM
CCN(CCO)CCCC(C)Nc1ccnc2cc(Cl)ccc12 (stereo not drawn) [Hydroxychloroquine]	> 80 µM
Cc1c(O)cccc1C(=O)N[C@@H](CSc1ccccc1)[C@H](O)CN1C[C@H]2CCCC[C@H]2C[C@H]1C(=O)NC(C)(C)C [Nelfinavir mesylate hydrate]	> 25 µM
CCOC(=O)c1c(CSc2ccccc2)n(C)c2cc(Br)c(O)c(CN(C)C)c12 [Arbidol HCl]	> 40 µM
NC(N)=Nc1nc(CSCCC(N)=NS(N)(=O)=O)cs1 [Famotidine]	> 100 µM
C[C@@H]1CCN(C(=O)CC#N)C[C@@H]1N(C)c1ncnc2[nH]ccc12 [Tofacitinib]	> 100 µM
OC(Cn1cncn1)(Cn1cncn1)c1ccc(F)cc1F [Fluconazol]	> 100 µM
O=C(Nc1ccc([N+](=O)[O-])cc1Cl)c1cc(Cl)ccc1O [Niclosamide]	> 9 µM
CCCCOc1nc(N)c2c(n1)N(Cc1cccc(CN3CCCC3)c1)CC(=O)N2 [Vesatolimod]	> 20 µM
CCC(C)n1ncn(-c2ccc(N3CCN(c4ccc(OCC5COC(Cn6cncn6)(c6ccc(Cl)cc6Cl)O5)cc4)CC3)cc2)c1=O (stereo not drawn) [Itraconazole]	> 100 µM
COc1cc(C2Oc3cc([C@H]4Oc5cc(O)cc(O)c5C(=O)[C@@H]4O)ccc3OC2CO)ccc1O (stereo partly drawn) [Silibinin]	> 20 µM

----------
Test: in vitro
Settings: African green monkey
Structures can show the parent of a compound that is named as a salt. *1 amine or outer side, *2 acyl side, *3 side chain or, on linkers, in order; H or OH if unused. Where a SMILES comes first, the peptide text is derived from it. Bridges are numbered along the chain shown (N, C = ends). [ ]: non-standard residue; d: D form. The star is where a group is joined. X1 = CC[C@H](C)[C@@H](N[*:1])[C@@H](O)CC(=O)O[C@H](C(=O)[C@H](C)C(=O)[*:2])C(C)C; NMeY = CN[C@@H](Cc1ccc(O)cc1)C(=O)O; dNMeL = CN[C@H](CC(C)C)C(=O)O; Pyruvoyl = CC(=O)C(=O)*; Cbz = O=C(OCc1ccccc1)*

Molecule	CC50
CN(C)C(=O)COC(=O)Cc1ccc(OC(=O)c2ccc(NC(=N)N)cc2)cc1 [Camostat]	> 100 µM
CCS(=O)(=O)N1CC(CC#N)(n2cc(-c3ncnc4[nH]ccc34)cn2)C1 [Baricitinib]	> 85 µM
CC(C)OC(=O)OCOP(=O)(CO[C@H](C)Cn1cnc2c(N)ncnc21)OCOC(=O)OC(C)C [Tenofovir disoproxil fumarate]	> 100 µM
CC(C)OC(=O)[C@H](C)N[P@](=O)(CO[C@H](C)Cn1cnc2c(N)ncnc21)Oc1ccccc1 [Tenofovir Alafenamide]	> 100 µM
CC(C)[C@H](NC(=O)OCc1ccccc1)C(=O)N[C@H](C=O)Cc1ccccc1 [MDL 28170] (Cbz-Val-Phe-aldehyde)	> 87 µM
CC[C@H](C)[C@H]1NC(=O)[C@@H](NC(=O)[C@@H](CC(C)C)N(C)C(=O)[C@@H]2CCCN2C(=O)C(C)=O)[C@@H](C)OC(=O)[C@H](Cc2ccc(OC)cc2)N(C)C(=O)[C@@H]2CCCN2C(=O)[C@H](CC(C)C)NC(=O)[C@@H](C)C(=O)[C@H](C(C)C)OC(=O)C[C@@H]1O [Plitidepsin] (Pyruvoyl-P[dNMeL]T[X1]LP[NMeY](Me); ester 3-C)	> 0.1 µM
COc1cc2c(c(OC)c1OC)-c1ccc(OC)c(=O)cc1[C@@H](NC(C)=O)CC2 [Colchicine]	0.63 µM
CCC(CC)COC(=O)[C@H](C)N[P@](=O)(OC[C@H]1O[C@@](C#N)(c2ccc3c(N)ncnn23)[C@H](O)[C@@H]1O)Oc1ccccc1 [Remdesivir]	> 85 µM
CC(C)OC(=O)[C@H](C)N[P@](=O)(OC[C@H]1O[C@@H](n2ccc(=O)[nH]c2=O)[C@](C)(F)[C@@H]1O)Oc1ccccc1 [Sofosbuvir]	> 100 µM

----------
Experiment: in vitro
Details: African green monkey, CC50
Property measured: CC50 at 3 days

Compound	Recorded result
COC[C@H]1C[C@@H](c2ncc(-c3ccc4c(c3)COc3cc5c(ccc6nc([C@@H]7CC[C@H](C)N7C(=O)[C@@H](NC(=O)OC)C(C)C)[nH]c65)cc3-4)[nH]2)N(C(=O)[C@H](NC(=O)OC)c2ccccc2)C1	> 10 µM
CC(C)(C)NC(=O)N[C@H](C(=O)N1C[C@H]2[C@@H]([C@H]1C(=O)NC(CC1CCC1)C(=O)C(N)=O)C2(C)C)C(C)(C)C (stereo partly drawn)	> 100 µM
NC(=O)c1nc(F)c[nH]c1=O	> 100 µM

----------
Tested on: Vero E6 cells
Settings: Vero E6, no virus, 3 days

Molecule	CC50
COC(=O)N[C@H](C(=O)N[C@@H](Cc1ccccc1)[C@@H](O)CN(Cc1ccc(-c2ccccn2)cc1)NC(=O)[C@@H](NC(=O)OC)C(C)(C)C)C(C)(C)C.O=S(=O)(O)O [Atazanavir Sulfate]	> 20 µM
CCCNC(=O)[C@H]1O[C@@H]1C(=O)N[C@H](C(=O)N1CCC[C@H]1C(=O)OC)[C@@H](C)CC	> 34 µM
CCN1CCN(Cc2ccc(Nc3ncc(F)c(-c4cc(F)c5nc(C)n(C(C)C)c5c4)n3)nc2)CC1	> 1 µM
CCCCN1C[C@H](O)[C@@H](O)[C@H](O)[C@H]1CO	> 100 µM
CCOC(=O)[C@H]1O[C@@H]1C(=O)N[C@@H](CC(C)C)C(=O)NCCC(C)C [E-64d]	> 100 µM
